molecular target: human leukocyte elastase (hLE) (Homo sapiens); construct: Neutrophils (1.4 billion) were isolated from whole blood obtained from a single healthy laboratory donor; from tissue; host or cells: neutrophils from whole blood of a single healthy donor; experiment: In-vitro inhibition of hLE (cleavage of MeOSuc-AAPV-NA); assay type: biochemical
Sequence (P08246 30-247 limits assumed): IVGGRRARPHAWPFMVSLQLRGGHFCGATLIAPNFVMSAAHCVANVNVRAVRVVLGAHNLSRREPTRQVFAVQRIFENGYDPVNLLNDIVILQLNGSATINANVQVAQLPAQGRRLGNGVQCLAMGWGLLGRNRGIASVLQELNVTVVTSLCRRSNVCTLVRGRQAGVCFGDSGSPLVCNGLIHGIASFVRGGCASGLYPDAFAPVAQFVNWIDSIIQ
Starred links: 1 amine or outer side, 2 acyl side, 3 side chain; linkers in the order of their positions; H or OH if unused. Non-standard residues stand in square brackets, D forms with d. Residues, ends and D or L forms follow the SMILES beside them. *: point of attachment. NH(1-Adamantyl) = C1C2CC3CC1CC(N*)(C2)C3; Octanoyl = CCCCCCCC(=O)*; CO = O=C([*:1])[*:2]
MEASURED ATTRIBUTE: pKi
Lab note: report pKi as minus log10 of the concentration in molar units, number only.

Look over these answered cases.
{"MOLECULE": "CC[C@H](C)[C@H](NC(=O)[C@H](Cc1c[nH]cn1)NC(=O)[C@@H](NC(=O)[C@@H]1CCCN1C(=O)[C@H](C)NC(=O)[C@@H](NC(=O)[C@@H](NC(=O)[C@@H](NC(=O)NC12CC3CC(CC(C3)C1)C2)C(C)C)[C@@H](C)O)C(C)C)C(C)C)C(=O)O [Peptide 17] ({NH(1-Adamantyl)-CO}-VTVAPVHI-OH)", "ASSAYED SYSTEM": "human leukocyte elastase (hLE) (Homo sapiens)", "pKi": 3.89}
{"MOLECULE": "CC[C@H](C)[C@H](NC(=O)[C@@H](Cc1c[nH]cn1)NC(=O)[C@@H](NC(=O)[C@@H]1CCCN1C(=O)[C@H](C)NC(=O)[C@@H](NC(=O)[C@@H](NC(=O)[C@@H](N)C(C)C)[C@@H](C)O)C(C)C)C(C)C)C(=O)O [Peptide 6, Val89-Thr-Val-Ala-Pro-Val-(D)His-Ile96] (H-VTVAPV[dH]I-OH; N-terminus and C-terminus assumed)", "ASSAYED SYSTEM": "human leukocyte elastase (hLE) (Homo sapiens)", "pKi": 3.35}

Next molecule, please.
q: Output measured pKi for this item: CCCCCCCC(=O)N[C@H](C(=O)N[C@H](C(=O)N[C@H](C(=O)N[C@@H](C)C(=O)N1CCC[C@H]1C(=O)N[C@H](C(=O)N[C@@H](Cc1c[nH]cn1)C(=O)N[C@H](C(=O)O)[C@@H](C)CC)C(C)C)C(C)C)[C@@H](C)O)C(C)C [Peptide 19] (Octanoyl-VTVAPVHI-OH)
a: 3.55
